Sequence of the target: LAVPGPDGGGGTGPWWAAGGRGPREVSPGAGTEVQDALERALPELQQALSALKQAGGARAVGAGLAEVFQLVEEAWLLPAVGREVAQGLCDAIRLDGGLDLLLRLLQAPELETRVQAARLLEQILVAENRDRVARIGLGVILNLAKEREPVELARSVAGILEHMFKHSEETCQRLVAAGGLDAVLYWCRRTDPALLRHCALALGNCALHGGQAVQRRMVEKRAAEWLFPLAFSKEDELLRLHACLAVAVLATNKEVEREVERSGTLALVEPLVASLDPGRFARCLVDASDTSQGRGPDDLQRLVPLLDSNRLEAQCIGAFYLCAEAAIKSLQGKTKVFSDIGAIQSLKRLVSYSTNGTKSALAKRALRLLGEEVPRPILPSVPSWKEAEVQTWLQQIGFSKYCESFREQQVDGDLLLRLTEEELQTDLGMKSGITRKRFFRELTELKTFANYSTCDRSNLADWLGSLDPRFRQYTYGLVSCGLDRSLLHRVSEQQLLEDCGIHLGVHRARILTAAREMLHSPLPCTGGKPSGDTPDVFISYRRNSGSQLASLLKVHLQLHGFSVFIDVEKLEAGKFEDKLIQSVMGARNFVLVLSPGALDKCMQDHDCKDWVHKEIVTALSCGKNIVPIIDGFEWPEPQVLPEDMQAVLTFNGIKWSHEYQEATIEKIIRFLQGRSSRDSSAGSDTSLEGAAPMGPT
IC50: recorded values

Some compounds with known IC50 results, for comparison:
[[record]]
compound = "CN(C(=O)OC(C)(C)C)c1ccc2ncc(-c3cc4ccn(C)c4cn3)n2c1"
measured_parameter = "IC50"
assay_value = "1000 to 10000 nM"

[[record]]
compound = "CC(=O)Nc1cccc(-c2cnc3ccc(N(C)C(=O)OC(C)(C)C)cn23)c1"
measured_parameter = "IC50"
assay_value = "< 1000 nM"


Query string: Entry CN(C(=O)OC(C)(C)C)c1ccc2ncc(-c3cccc(NC(=O)C4CCOC4)c3)n2c1 (stereo not drawn) has what IC50?
Result string: 1000 to 10000 nM

Query string: Also check "CNc1ccc2ncc(-c3cccc(C(=O)NC4CCOCC4)c3)n2c1"
Result string: < 1000 nM

Query string: Also check "CN(C(=O)OC(C)(C)C)c1ccc2ncc(-c3cccc(NC(=O)C4COC4)c3)n2c1"
Result string: 1000 to 10000 nM

Query string: Also check "CNc1ccc2ncc(-c3cccc4c3CN(CCOC)C4=O)n2c1"
Result string: 1000 to 10000 nM
